Entries and their inhibition
SUBJECT_OF_TEST: Ephrin type-A receptor 3 (Homo sapiens) (UniProt P29320)
Sequence (P29320 whole entry): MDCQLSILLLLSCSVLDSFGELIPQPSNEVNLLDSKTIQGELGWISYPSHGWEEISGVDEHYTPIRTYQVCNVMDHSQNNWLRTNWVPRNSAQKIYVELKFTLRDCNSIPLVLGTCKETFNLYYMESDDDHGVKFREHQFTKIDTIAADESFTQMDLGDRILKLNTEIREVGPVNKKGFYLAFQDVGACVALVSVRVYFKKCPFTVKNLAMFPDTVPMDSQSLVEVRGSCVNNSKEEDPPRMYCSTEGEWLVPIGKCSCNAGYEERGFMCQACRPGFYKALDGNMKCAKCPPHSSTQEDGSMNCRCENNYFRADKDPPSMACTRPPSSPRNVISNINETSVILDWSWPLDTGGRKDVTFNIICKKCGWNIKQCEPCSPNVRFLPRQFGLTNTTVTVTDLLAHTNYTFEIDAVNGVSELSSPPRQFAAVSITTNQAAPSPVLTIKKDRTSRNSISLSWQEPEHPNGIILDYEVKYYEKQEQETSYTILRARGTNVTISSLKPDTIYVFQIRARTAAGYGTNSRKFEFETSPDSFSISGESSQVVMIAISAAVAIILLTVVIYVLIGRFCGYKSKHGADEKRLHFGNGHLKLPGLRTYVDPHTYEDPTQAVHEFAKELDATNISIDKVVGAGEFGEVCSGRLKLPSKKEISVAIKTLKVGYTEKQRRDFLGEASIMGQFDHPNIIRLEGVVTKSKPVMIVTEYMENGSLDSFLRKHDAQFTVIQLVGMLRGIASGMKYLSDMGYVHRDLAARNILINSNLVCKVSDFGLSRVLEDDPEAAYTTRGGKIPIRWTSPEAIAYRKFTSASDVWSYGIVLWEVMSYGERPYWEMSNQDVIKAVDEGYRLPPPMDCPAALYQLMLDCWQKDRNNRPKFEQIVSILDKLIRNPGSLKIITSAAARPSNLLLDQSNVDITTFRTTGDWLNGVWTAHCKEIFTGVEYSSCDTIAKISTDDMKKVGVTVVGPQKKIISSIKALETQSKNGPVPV
RECORDED_CONDITIONS: at 1 µM
Respond numerically; units are % and should not be typed.

Known inhibition results, listed for orientation:
>  <COMPOUND>
CCc1cccc(NC(=O)Nc2ccc(Oc3ccc4nc(NC(=O)OC)[nH]c4c3)cc2)c1

>  <VALUE_UNIT>
%

>  <inhibition>
10.1

$$$$
>  <COMPOUND>
CN(C)c1cc2c(Nc3ccc4nc(Cc5ccccc5)[nH]c4c3)ncnc2cn1

>  <VALUE_UNIT>
%

>  <inhibition>
5.67

$$$$
>  <COMPOUND>
CC1=C(C(=O)Nc2ccc3[nH]ncc3c2)C(c2ccc(Cl)c(Cl)c2)CC(=O)N1 (configuration not stated)

>  <VALUE_UNIT>
%

>  <inhibition>
2.8

$$$$
>  <COMPOUND>
Nc1nc(-c2ccccn2)c(-c2ccc3ncccc3n2)s1

>  <VALUE_UNIT>
%

>  <inhibition>
3.28

$$$$

# inhibition (compound: [O-][S+]1CCN(Cc2ccc(-c3ccc4ncnc(Nc5ccc(OCc6ccccc6)c(F)c5)c4c3)o2)CC1 ) is 4.32

# inhibition (compound: NS(=O)(=O)c1cccc(-c2ccc3c(NC(=O)C4CC4)n[nH]c3c2)c1 ) is -2.02

# inhibition (compound: COC(=O)Nc1nc2cc(Oc3cccc(NC(=O)Nc4cc(C(F)(F)F)ccc4F)c3)ccc2[nH]1 ) is 2.56

# inhibition (compound: COc1ccc2cc(-c3c(-c4ccncc4)nc(-c4ccc([S+](C)[O-])cc4)n3C)ccc2c1 (configuration not stated) ) is 5.2

# inhibition (compound: CC1=C(C(=O)Nc2ccc3[nH]ncc3c2)C(c2ccc(F)cc2)NC(=O)N1 (configuration not stated) ) is 2.14

# inhibition (compound: COc1cc2ncn(-c3cc(O[C@H](C)c4ccccc4Cl)c(C(N)=O)s3)c2cc1OC ) is 14.3

###

Tested on: Epidermal growth factor receptor (Homo sapiens), P00533 [L858R]
Sequence (P00533 whole entry L858R): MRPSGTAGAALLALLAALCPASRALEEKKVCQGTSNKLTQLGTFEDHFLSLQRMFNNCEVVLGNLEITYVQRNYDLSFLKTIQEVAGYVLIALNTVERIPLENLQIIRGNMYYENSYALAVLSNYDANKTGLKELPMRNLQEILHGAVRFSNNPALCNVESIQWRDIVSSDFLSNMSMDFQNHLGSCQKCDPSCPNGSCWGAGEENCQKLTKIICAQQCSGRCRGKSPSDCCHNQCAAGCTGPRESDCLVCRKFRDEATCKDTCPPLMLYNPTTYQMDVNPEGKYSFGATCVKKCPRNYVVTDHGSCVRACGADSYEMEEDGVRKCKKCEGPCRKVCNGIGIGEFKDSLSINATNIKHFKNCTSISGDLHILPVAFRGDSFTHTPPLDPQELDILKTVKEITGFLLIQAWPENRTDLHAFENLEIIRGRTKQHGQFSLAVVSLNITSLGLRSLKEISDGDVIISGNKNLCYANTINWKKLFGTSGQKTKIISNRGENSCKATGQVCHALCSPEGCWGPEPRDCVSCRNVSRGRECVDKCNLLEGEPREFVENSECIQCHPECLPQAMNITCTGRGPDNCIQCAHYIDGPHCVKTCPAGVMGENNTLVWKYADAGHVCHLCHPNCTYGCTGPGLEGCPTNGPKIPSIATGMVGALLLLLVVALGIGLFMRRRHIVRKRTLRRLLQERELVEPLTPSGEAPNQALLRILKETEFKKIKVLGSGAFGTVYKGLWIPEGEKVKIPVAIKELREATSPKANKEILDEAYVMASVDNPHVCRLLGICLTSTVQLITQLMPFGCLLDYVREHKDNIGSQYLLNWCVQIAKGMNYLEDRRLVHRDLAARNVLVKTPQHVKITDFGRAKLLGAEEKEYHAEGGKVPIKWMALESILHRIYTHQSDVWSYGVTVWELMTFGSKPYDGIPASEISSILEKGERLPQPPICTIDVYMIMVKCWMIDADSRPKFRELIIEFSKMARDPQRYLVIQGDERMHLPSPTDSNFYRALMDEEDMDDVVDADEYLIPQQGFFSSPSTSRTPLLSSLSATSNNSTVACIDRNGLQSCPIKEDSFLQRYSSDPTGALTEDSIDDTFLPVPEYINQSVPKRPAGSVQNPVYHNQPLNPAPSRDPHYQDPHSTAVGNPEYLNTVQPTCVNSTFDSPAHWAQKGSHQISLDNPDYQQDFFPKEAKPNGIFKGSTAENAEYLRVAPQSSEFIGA
RECORDED_CONDITIONS: at 1 µM
Where inhibition equals or exceeds 10%, the correct label is criterion met; where it does not, the label is criterion not met.

Here are 4 compounds together with their reported answers.
>  <SMILES_RECORD>
Cc1ccc(C(=O)NC2CCCCC2)cc1-c1ccc(C(=O)NCC2CC2)cc1

>  <ASSIGNED_CLASS>
criterion not met

$$$$
>  <SMILES_RECORD>
CNC(=O)c1cncc(/C=C/c2c(Cl)cccc2Cl)c1

>  <ASSIGNED_CLASS>
criterion met

$$$$
>  <SMILES_RECORD>
NCc1ccc(-c2nc(-c3ccc(Cl)c(O)c3)c(-c3ccncc3)[nH]2)cc1

>  <ASSIGNED_CLASS>
criterion met

$$$$
>  <SMILES_RECORD>
CC(C)=Cc1cccc2c1/C(=N/Nc1ccc(S(N)(=O)=O)cc1)C(=O)N2

>  <ASSIGNED_CLASS>
criterion not met

$$$$

Now look at this one.
Exam item: decide whether the reported inhibition for Cc1nnc(-c2ccc(C)c(-c3ccc(C(=O)Nc4cccc(C#N)c4)cc3)c2)o1 is at least 10%.
criterion not met

###

SUBJECT_OF_TEST: High affinity nerve growth factor receptor (Homo sapiens) (UniProt P04629)
Sequence (P04629 33-796 limits assumed): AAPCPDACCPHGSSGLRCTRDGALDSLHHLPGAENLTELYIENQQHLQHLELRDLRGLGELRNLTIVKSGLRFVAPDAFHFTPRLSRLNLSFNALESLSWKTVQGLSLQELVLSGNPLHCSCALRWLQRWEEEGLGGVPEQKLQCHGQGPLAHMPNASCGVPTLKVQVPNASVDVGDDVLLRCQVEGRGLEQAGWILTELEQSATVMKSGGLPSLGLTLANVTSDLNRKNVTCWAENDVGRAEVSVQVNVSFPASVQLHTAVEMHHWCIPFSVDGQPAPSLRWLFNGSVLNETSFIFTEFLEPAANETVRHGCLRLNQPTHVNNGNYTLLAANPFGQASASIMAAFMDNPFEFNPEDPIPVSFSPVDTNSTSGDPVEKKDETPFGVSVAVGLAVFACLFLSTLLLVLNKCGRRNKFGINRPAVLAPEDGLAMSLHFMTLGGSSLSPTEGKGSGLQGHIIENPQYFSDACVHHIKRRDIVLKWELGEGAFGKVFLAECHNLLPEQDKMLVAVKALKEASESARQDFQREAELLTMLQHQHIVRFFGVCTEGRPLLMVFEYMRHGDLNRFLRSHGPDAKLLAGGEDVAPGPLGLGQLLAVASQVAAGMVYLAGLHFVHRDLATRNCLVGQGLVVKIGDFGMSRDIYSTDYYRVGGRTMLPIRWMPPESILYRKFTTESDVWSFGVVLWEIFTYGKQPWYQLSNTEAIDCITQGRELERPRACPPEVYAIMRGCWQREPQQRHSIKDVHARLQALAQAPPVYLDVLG
RECORDED_CONDITIONS: at 1 µM
ENDPOINT_NAME: inhibition (%)
Respond numerically; units are % and should not be typed.

>  <SMILES_RECORD>
[O-][S+]1CCN(Cc2ccc(-c3ccc4ncnc(Nc5ccc(OCc6ccccc6)c(F)c5)c4c3)o2)CC1

>  <VALUE_OBSERVED>
1.44

$$$$
>  <SMILES_RECORD>
CS(=O)(=O)CCN(CC#N)Cc1ccc(-c2ccc3ncnc(Nc4ccc(OCc5cccc(F)c5)c(Cl)c4)c3c2)o1

>  <VALUE_OBSERVED>
4.12

$$$$
>  <SMILES_RECORD>
CCn1c(-c2nonc2N)nc2c(C#CC(C)(C)O)nc(OC[C@@H](N)c3ccccc3)cc21

>  <VALUE_OBSERVED>
1.12

$$$$
>  <SMILES_RECORD>
CCn1c(-c2nonc2N)nc2cncc(C(=O)N3CCNCC3)c21

>  <VALUE_OBSERVED>
4.86

$$$$
>  <SMILES_RECORD>
COc1ccc(-c2coc3ncnc(N)c23)cc1

>  <VALUE_OBSERVED>
2.06

$$$$

So the reported inhibition for O=C1NC(=O)C(c2ccc(Cl)cc2)=C1Nc1ccc(Cl)c(C(=O)O)c1 , on High affinity nerve growth factor receptor (Homo sapiens) (UniProt P04629), turned out to be 0.46

Origin of measurements: ChEMBL document CHEMBL1961873
